experiment: DRUGMATRIX: Atrial Natriuretic Factor (ANF) radioligand binding (ligand: [125I] ANF (rat)); assay type: cell membranes, Cavia porcellus, Dunkin-Hartley, Adrenal gland, Membrane; details: Not Active = under 50% inhibition at 10 µM
RESULT_TYPE: IC50

Req: Consider the molecule CCN[C@@H](C)Cc1cccc(C(F)(F)F)c1 . State its measured IC50.
Resp: Not Active

Req: Consider the molecule CC[C@H]1OC(=O)[C@H](C)[C@@H](O[C@H]2C[C@@](C)(OC)[C@@H](O)[C@H](C)O2)[C@H](C)[C@@H](O[C@@H]2O[C@H](C)C[C@H](N(C)C)[C@H]2O)[C@](C)(OC)C[C@@H](C)C(=O)[C@H](C)[C@@H](O)[C@]1(C)O . State its measured IC50.
Resp: Not Active

Req: Consider the molecule C[C@H](C(=O)O)c1cccc(C(=O)c2ccccc2)c1 . State its measured IC50.
Resp: Not Active
